Recorded values, source ChEMBL document CHEMBL1134960.

# System: A549
# assayRemarks: Cytotoxicity against […] cell lines A549 was determined
# Type: functional, cell-based
# assaySetup: Homo sapiens
quantityName: IC50 (nM)
Numbers only here, please. The scale is nM.

Specify measured IC50 for `[O-][S+]1Sc2ccccc2S1` .
151

----------
pIC50 for assorted compounds
# System: A498
# assayRemarks: Cytotoxicity against human kidney carcinoma cell lines A4982LM
# Assay type: functional, cell-based
By convention, pIC50 is the negative base-10 log of a molar concentration.

| entrySmiles | pIC50 |
| --- | --- |
| [O-][S+]1Sc2ccccc2S1 | 6.07 |

Specify measured pIC50 for `COc1cccc2c1C(=O)c1c(O)c3c(c(O)c1C2=O)C[C@@](O)(C(=O)CO)C[C@@H]3O[C@H]1C[C@H](N)[C@H](O)[C@H](C)O1` .
7.28
